The origin of these recorded values is patent US20160083466A1.

- Experimental Target: T1, mouse IL-25 expressed with a C-terminal myc-myc-hexahistidine tag (mouse)
- T1 construct: also called Mouse IL-25-MMH; mIL-25-MMH
- T1 chain: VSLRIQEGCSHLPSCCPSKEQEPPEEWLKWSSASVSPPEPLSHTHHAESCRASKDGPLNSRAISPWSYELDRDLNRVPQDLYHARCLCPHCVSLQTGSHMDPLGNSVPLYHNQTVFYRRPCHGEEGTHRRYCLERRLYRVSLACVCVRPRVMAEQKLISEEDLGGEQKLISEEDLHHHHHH
- Protocol Notes: SPR Biacore, antibody captured, 37C;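 also: Real-time sensorgrams of IL-25-MMH binding to purified anti-IL-25 antibodies, rate constants obtained by fitting a 1:1 binding model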
Property Measured: 100 nM Mouse IL-25-MMH Bound (RU)
Respond with the bare value in RU.

Query: Would you kindly share the measured 100 nM Mouse IL-25-MMH Bound (RU) for H4H10901P (antibody, human IgG4, V domains shown, H4H prefix = human IgG4 Fc) VH: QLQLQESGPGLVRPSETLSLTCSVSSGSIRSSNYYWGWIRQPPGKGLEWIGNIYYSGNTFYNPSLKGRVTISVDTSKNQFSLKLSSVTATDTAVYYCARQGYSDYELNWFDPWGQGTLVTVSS VL: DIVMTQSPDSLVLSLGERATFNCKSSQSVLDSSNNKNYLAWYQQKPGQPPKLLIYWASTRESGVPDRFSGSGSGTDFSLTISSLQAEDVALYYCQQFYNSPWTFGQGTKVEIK ?
Result: 2

Query: Give its 100 nM Mouse IL-25-MMH Bound (RU) value. Item: H4H10863P (antibody, human IgG4, V domains shown, H4H prefix = human IgG4 Fc) VH: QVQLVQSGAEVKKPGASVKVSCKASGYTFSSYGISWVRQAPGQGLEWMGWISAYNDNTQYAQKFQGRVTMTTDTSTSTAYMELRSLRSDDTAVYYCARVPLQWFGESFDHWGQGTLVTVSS VL: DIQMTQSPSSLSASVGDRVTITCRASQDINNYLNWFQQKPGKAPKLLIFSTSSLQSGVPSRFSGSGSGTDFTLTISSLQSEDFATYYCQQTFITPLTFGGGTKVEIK
Result: 37

Query: Which measured 100 nM Mouse IL-25-MMH Bound (RU) value corresponds to H4H10883P (antibody, human IgG4, V domains shown, H4H prefix = human IgG4 Fc) VH: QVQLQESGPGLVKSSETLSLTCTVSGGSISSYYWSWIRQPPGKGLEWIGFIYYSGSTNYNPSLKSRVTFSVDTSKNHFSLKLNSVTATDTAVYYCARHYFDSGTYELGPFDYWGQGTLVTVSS VL: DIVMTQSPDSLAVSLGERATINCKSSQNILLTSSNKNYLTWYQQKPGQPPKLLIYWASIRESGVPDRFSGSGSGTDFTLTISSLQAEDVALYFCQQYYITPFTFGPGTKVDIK ?
Result: 1

Query: Item H4H10907P (antibody, human IgG4, V domains shown, H4H prefix = human IgG4 Fc) VH: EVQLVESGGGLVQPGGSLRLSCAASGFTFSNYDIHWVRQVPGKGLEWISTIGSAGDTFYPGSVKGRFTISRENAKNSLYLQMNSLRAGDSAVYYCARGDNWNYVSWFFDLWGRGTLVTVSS VL: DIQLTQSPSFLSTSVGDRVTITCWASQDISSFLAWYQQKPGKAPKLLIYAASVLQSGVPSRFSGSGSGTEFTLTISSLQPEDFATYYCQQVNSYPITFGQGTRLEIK has what recorded 100 nM Mouse IL-25-MMH Bound (RU)?
Result: 8

Query: 100 nM Mouse IL-25-MMH Bound (RU) for H4H10876P (antibody, human IgG4, V domains shown, H4H prefix = human IgG4 Fc) VH: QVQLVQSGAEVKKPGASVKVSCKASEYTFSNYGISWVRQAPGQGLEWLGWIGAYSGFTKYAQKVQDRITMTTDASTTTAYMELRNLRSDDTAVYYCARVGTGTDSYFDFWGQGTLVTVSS VL: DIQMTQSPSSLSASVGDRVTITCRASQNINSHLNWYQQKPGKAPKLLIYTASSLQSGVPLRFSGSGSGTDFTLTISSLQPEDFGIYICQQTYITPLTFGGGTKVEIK ?
Result: 51

Query: Data request, read-out 100 nM Mouse IL-25-MMH Bound (RU), for H4H10861P (antibody, human IgG4, V domains shown, H4H prefix = human IgG4 Fc) VH: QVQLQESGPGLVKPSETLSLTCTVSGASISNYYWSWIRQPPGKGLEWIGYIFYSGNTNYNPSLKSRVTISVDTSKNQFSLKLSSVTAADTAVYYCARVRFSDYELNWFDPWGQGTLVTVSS VL: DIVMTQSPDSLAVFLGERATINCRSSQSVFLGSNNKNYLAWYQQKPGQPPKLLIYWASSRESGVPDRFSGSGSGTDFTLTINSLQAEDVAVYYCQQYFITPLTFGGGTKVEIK
Result: 2
